// data source = patent US6512097

- TESTED SYSTEM: T1, c-erbB-2 ECD with a Ser-Gly-His6 C-terminal fusion (UniProt P04626 23-652)
- T1 construct: extracellular domain; Expressed from CHO cells, IMAC purified; coupled to a CM5 chip, coated on plates, or biotinylated with NHS-LC-biotin; also called c-erbB-2 extracellular domain; biotinylated c-erbB-2 ECD
- TEST DETAILS: SPR BIAcore
Kd (mutant)/Kd (C6.5) reference
Answer with a bare number; do not write a unit.

INSERT INTO measurements (binder, measured_metric, readout_number) VALUES
  ('C6.5P100iA (scFv, C6.5 VH CDR3 scan mutant; Kabat numbering) scFv: QVQLLQSGAELKKPGESLKISCKGSGYSFTSYWIAWVRQMPGKGLEYMGLIYPGDSDTKYSPSFQGQVTISVDKSVSTAYLQWSSLKPSDSAVYFCARHDVGYCSSSNCAKWAEYFQHWGQGTLVTVSSGGGGSGGGGSGGGGSQSVLTQPPSVSAAPGQKVTISCSGSSSNIGNNYVSWYQQLPGTAPKLLIYGHTNRPAGVPDRFSGSKSGTSASLAISGFRSEDEADYYCAAWDDSLSGWVFGGGTKLTVLG', 'Kd (mutant)/Kd (C6.5)', 0.6),
  ('C6.5Y99A (scFv, C6.5 VH CDR3 scan mutant; Kabat numbering) scFv: QVQLLQSGAELKKPGESLKISCKGSGYSFTSYWIAWVRQMPGKGLEYMGLIYPGDSDTKYSPSFQGQVTISVDKSVSTAYLQWSSLKPSDSAVYFCARHDVGACSSSNCAKWPEYFQHWGQGTLVTVSSGGGGSGGGGSGGGGSQSVLTQPPSVSAAPGQKVTISCSGSSSNIGNNYVSWYQQLPGTAPKLLIYGHTNRPAGVPDRFSGSKSGTSASLAISGFRSEDEADYYCAAWDDSLSGWVFGGGTKLTVLG', 'Kd (mutant)/Kd (C6.5)', 3.7);

In: What value of Kd (mutant)/Kd (C6.5) has been reported for the following binder? C6.5V97A (scFv, C6.5 VH CDR3 scan mutant; Kabat numbering) scFv: QVQLLQSGAELKKPGESLKISCKGSGYSFTSYWIAWVRQMPGKGLEYMGLIYPGDSDTKYSPSFQGQVTISVDKSVSTAYLQWSSLKPSDSAVYFCARHDAGYCSSSNCAKWPEYFQHWGQGTLVTVSSGGGGSGGGGSGGGGSQSVLTQPPSVSAAPGQKVTISCSGSSSNIGNNYVSWYQQLPGTAPKLLIYGHTNRPAGVPDRFSGSKSGTSASLAISGFRSEDEADYYCAAWDDSLSGWVFGGGTKLTVLG
Out: 3
